Where do the numbers come from? From patent EP0429187A1.

assay: Comparison of enhanced bioavailability DHEA adsorbate with micronised DHEA: plasma levels (AUC) of DHEA base and sulphate; type: in vivo; details: reference AUC arbitrarily denoted as 100%, 500 mg oral every 8 hours over 24 hours, 9 healthy male human volunteers, read-out: F = absolute bioavailability (DHEA Base)
RECORDED METRIC: bioavailability
Returns: string containing the number followed by the unit.

Can you look up the measured bioavailability of C[C@]12CC[C@H](O)CC1=CC[C@@H]1[C@@H]2CC[C@]2(C)C(=O)CC[C@@H]12 [REFERENCE, dehydroepiandrosterone] for me?
100%
